Values were extracted from paper PMC9090415.

Examples of compounds with documented % inhibition Apol 90' follow.
- system.under.test: P. falciparum apicoplast DNA polymerase (Pf-apPOL) (Plasmodium falciparum)
- Sequence (Q8ILY1 entry or part of it): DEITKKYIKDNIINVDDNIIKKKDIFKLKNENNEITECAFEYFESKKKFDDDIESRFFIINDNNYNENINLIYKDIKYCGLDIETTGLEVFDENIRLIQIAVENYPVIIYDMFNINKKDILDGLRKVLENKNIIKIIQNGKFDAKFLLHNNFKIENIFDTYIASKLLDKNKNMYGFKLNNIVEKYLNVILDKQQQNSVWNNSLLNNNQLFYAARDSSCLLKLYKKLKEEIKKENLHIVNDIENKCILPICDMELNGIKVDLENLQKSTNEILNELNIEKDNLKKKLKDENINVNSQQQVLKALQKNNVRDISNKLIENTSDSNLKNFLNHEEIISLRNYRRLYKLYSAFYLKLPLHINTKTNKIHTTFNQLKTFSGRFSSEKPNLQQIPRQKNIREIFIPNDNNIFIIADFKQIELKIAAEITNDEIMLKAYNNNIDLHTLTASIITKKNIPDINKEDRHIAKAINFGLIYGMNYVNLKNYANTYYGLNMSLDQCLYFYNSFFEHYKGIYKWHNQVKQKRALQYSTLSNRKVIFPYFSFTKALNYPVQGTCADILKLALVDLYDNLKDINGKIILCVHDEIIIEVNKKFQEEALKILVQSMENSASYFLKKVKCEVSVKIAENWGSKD
- procedure.details: Fluorescence-based high-throughput DNA polymerase assay (molecular beacon), primary screen and dose-response
- Assay type: biochemical
- experimental.setup: DRC-1; 90'; concentration 5
reported.endpoint: % inhibition Apol 90' (%)

- compound: "Oc1cccc2ccc(/C=C/c3ccc4c(c3)OCO4)nc12 [KU0025984]"
  observed: 4.814
- compound: "COc1ccc(-c2cc3nc4c(c(=O)n3[nH]2)CCN(C(=O)CCc2ccccc2)C4)cc1 [Molecule 17]"
  observed: 18
- compound: "O=C(Cc1cc(=O)[nH]c(SCc2ccccc2)n1)Nc1ccc2c(c1)OCO2 [Molecule 46]"
  observed: -3.621
- compound: "Cc1ccc(C)c(CSc2nc(C3CCCCC3)c(C#N)c(=O)[nH]2)c1 [Molecule 6]"
  observed: 29.5473
- compound: "O=C(CSc1nnc(-c2ccncc2)[nH]1)c1ccc(O)c(O)c1 [Molecule 89]"
  observed: 70.0142
- compound: "COCCN(CCOC)Cc1c(O)ccc2c1OC(=Cc1cc(Br)ccc1OC)C2=O [KU0198471]"
  observed: 8.305
- compound: "Cc1cc(C)c(O)c(/N=C/c2cc([N+](=O)[O-])cc(Br)c2O)c1 [KU0046272]"
  observed: -11.6285
- compound: "O=C(Nc1cccc(Cl)c1)Nc1nnc(-c2ccncc2)s1 [KU0022348]"
  observed: -8.679
- compound: "COc1ccc(S(=O)(=O)/N=C2\\NC(=O)/C(=C3\\C(=O)Nc4ccc([N+](=O)[O-])cc43)S2)cc1 [KU0054985]"
  observed: 6.911

---

- system.under.test: bacteriophage T4 DNA polymerase (Enterobacteria phage T4)
- Construct: made in house
- Sequence (P04415 1-898): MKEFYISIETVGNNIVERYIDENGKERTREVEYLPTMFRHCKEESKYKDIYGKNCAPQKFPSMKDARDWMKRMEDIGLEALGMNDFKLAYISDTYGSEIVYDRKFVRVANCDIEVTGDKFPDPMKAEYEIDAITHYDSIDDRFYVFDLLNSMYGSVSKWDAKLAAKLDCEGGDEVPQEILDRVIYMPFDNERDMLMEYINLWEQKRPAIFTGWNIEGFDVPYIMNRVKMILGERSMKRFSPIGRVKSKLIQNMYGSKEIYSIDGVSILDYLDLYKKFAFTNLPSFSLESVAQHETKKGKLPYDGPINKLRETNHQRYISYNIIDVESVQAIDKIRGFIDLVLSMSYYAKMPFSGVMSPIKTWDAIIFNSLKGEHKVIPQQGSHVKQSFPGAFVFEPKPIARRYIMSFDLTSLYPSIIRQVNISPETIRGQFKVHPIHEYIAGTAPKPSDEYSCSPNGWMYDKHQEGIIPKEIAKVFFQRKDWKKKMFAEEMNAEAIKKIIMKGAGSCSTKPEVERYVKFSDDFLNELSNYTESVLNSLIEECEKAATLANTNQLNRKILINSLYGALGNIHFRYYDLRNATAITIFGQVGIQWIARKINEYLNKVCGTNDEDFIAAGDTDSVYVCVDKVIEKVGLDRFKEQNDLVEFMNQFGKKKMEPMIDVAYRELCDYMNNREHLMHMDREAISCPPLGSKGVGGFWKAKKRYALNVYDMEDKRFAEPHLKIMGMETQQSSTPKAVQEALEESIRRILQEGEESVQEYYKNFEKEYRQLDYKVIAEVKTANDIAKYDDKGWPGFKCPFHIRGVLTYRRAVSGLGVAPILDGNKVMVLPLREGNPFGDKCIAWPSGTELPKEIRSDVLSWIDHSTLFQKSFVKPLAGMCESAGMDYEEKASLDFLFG
- procedure.details: Counter-screen against bacteriophage T4 DNA polymerase
- Format: biochemical
- experimental.setup: DRC-1; read at 70'; concentration 2.5
reported.endpoint: % inhibition T4 70' 2.5 (%)

- compound: "CCCc1ccc(Oc2coc3cc(OC)ccc3c2=O)cc1"
  observed: 0.7287
- compound: "Cc1ccc(N2CCC(NC(=O)Cc3cccs3)C2=O)cc1C (centres unmarked)"
  observed: -3.783
- compound: "O=C1CSC2=NC3=C(CCc4ccccc43)C(c3cccs3)N12 (centres unmarked)"
  observed: 9.951
- compound: "Cc1ccsc1Cn1c(C)ccc1C"
  observed: -3.335
- compound: "Cn1nc(-c2nnc(-c3ccccc3F)o2)c2c1CCN(C(=O)c1ccccc1Cl)C2"
  observed: -2.57
- compound: "CC(C)CC(C(=O)O)N1C(=O)C2C3C=CC(C2C1=O)C1C(=O)N(C(CC(C)C)C(=O)O)C(=O)C31 (centres unmarked)"
  observed: 0.3673
- compound: "COc1ccc(C2CC(c3ccc(Cl)cc3Cl)Nc3nc(N)nn32)cc1OC (centres unmarked)"
  observed: 8
- compound: "CC(=O)Nc1cc(C(=O)c2cccs2)nn(-c2ccc(Cl)cc2)c1=O"
  observed: -0.6527
- compound: "Cn1nc(-c2nc(-c3ccccc3)no2)c2c1CCN(C(=O)Cc1cccs1)C2"
  observed: -0.863
- compound: "Cc1cccc(-c2noc(C(=O)NNC(=O)C(Cl)(Cl)Cl)n2)c1"
  observed: 1.555
- compound: "Cc1cc2[nH]c(C(=O)Nc3ccc(F)cc3)c(CN3CCOCC3)c2s1"
  observed: 0.0854
- compound: "C#CC(C=CC)OC(=O)c1ccccc1C(=O)O (centres unmarked)"
  observed: 5.999
- compound: "Nc1cc(Oc2ccc(O)c(N)c2)ccc1O"
  observed: 10.2077
- compound: "CC(=O)OCC1=C(C(=O)[O-])N2C(=O)[C@@H](NC(=O)Cc3cccs3)[C@H]2SC1.[Na+]"
  observed: 9.196
- compound: "COc1ccc(/C=C/c2cc(C(=O)O)c3ccccc3n2)cc1"
  observed: -11.7738
- compound: "Cc1nc(C)c2c(n1)N(CC1CCCCC1)C(=O)CC2"
  observed: -6.824
- compound: "N#Cc1c(O)nc(N2CCCCC2)nc1-c1ccc2c(c1)OCO2"
  observed: -2.1541
